IC50 listing for selected compounds.
Biological target: human A3 receptor (Homo sapiens, UniProt P0DMS8)
Construct: expressed in transfected cells; host or cells: CHO
Sequence (P0DMS8 1-318): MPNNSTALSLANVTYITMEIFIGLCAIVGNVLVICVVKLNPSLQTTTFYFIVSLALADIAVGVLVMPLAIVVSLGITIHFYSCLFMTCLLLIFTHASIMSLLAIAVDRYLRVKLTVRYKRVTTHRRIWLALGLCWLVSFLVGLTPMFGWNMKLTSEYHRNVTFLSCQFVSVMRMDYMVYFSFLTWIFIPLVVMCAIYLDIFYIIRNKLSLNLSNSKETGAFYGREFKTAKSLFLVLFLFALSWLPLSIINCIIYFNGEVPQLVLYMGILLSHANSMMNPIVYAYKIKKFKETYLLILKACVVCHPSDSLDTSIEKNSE
Experiment: Functional A3 receptor activity, recombinant CHO cells, cAMP (HTRF), forskolin, agonist IB-MECA
Format: cell-based
Conditions: recombinant CHO cells, forskolin, agonist IB-MECA; read-out: Functional A3 receptor activity, CHO, cAMP, IC50

- Compound: "COCCn1cc(C(=O)Nc2nc3c(OC)nc(F)c(C4CCOCC4)c3s2)cn1"
  IC50: "< 1 µM"
- Compound: "COc1nc(F)c(N2CCOCC2)c2sc(NC(=O)c3ccc(-c4nnn[nH]4)cc3)nc12"
  IC50: "< 1 µM"
- Compound: "COc1ncc(C2=CCOCC2)c2sc(NC(=O)c3c[nH]cn3)nc12"
  IC50: "> 1 µM"
- Compound: "COc1nc(F)c(N2CCOCC2)c2sc(NC(=O)N3CC[C@]4(CCOC4)C3)nc12"
  IC50: "> 1 µM"
- Compound: "COc1ncc(C2=CCOCC2)c2sc(NC(=O)c3cnc4ccccn34)nc12"
  IC50: "< 1 µM"
- Compound: "COc1nc(F)c(C2CCOCC2)c2sc(NC(=O)N3CC[C@@]4(CCOC4)C3)nc12"
  IC50: "> 1 µM"
- Compound: "COc1ncc(C2COCCO2)c2sc(NC(=O)c3ccc(C(=O)O)cc3)nc12 (centres unmarked)"
  IC50: "> 1 µM"
- Compound: "COc1ncc(C2=CCOCC2)c2sc(NC(=O)Nc3ccc(N4N=C(C)CC4=O)cc3)nc12"
  IC50: "> 1 µM"
